B1: Hairpin Ribozyme (parent)
chain: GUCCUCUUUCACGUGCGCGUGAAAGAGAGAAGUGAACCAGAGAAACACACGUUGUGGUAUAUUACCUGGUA

# Variants of: B1
# Assay Name: self-cleavage, relative activity (ratio to wild type); higher = more cleavage; co-transcriptional
// bucketize self-cleavage: bottom: < 0.2; middle: ≥ 0.2 and < 0.4; top: ≥ 0.4

> print(dat)
    mutant.label  group.label
 1     G32C A44G       bottom
 2     G13U C66A       bottom
 3      U5A G21A       middle
 4     A31G U67A       bottom
 5     G32A U58G       bottom
 6     C38U U55C       middle
 7     A43G G56A       bottom
 8      G1U G32A       bottom
 9     G13C G42A       middle
10     G54U U67A       middle
11     C37A G57C       bottom
12     G13A C18G          top
13     G15A U67A       bottom
14     A22U A49U       middle
15     C50U U62A       bottom
16     C38G A47U       bottom
17     A36C A49C       bottom
18     A41C G54C          top
19     A31G U58C          top
20      U5G U53A          top
21     A28U G51A          top
22     A41G C66G       middle
23     U62A U70A       bottom
24     G25C A59G       bottom
25     A22C U70G          top
26     G51A U53C          top
27     A35U U52G          top
28      U5G A71U       middle
29     G27C C65A       bottom
30     A45U G51A       bottom
31      U9A A31C       bottom
32     U20C C37G       middle
33     U55C U70A       bottom
34      U7G U58C          top
35     U60C U67G       middle
36     A22G U53C          top
37      U2A U53C       middle
38      U9A U70A          top
39      G1U A30G       bottom
40     C37A U70G          top
41     A26U U52A          top
42      G1A C65U       bottom
43      U2C A47C       bottom
44     G25C G68C       bottom
45     A30C A59C       bottom
46      C4U G34U          top
47      C6A A64C       bottom
48     C10U G15A          top
49     A22C C46G       bottom
50     G17C U62G       middle
51     A11C G57A       bottom
52     G13A G56U       bottom
53     A24G C66A       middle
54     C10A A64C       bottom
55      U7G A61C       middle
56      U8C C38U       middle
57      G1U A28G       bottom
58      C6A A71G          top
59      C4G G40U       bottom
60      U2A U67C       bottom
61     C18A A71C          top
62     C10U A59U       bottom
63      U5G U67G       bottom
64     A24U A31U       bottom
65      C6G G13C       middle
66     C38G U63A       bottom
67     U14C U70C          top
68       U5A U7C       bottom
69     G15A A36C          top
70          C16A          top
71      U9C U70A          top
72      U9G A39U       bottom
73     U53A U63C       bottom
74      U5C G17C       middle
75      U9G G68A       middle
76      C4U A64G       middle
77      C3A U14A          top
78     A47U G68A       bottom
79     C12G A35C          top
80     G51A U62C       middle
81     G17U A28C       middle
82     G42A A59U       bottom
83     A30C U63G       bottom
84     G42U U60A       bottom
85     C12A U58C          top
86     G27U C48U       bottom
87      C6A G51C          top

Taken from the RNAGym collection of RNA variant scans (doi:10.7554/elife.80360).
